Please go through the items and note down their pEC50.
- system_under_test: hGLP-1R (Homo sapiens, UniProt P43220)
- Sequence (P43220 24-463): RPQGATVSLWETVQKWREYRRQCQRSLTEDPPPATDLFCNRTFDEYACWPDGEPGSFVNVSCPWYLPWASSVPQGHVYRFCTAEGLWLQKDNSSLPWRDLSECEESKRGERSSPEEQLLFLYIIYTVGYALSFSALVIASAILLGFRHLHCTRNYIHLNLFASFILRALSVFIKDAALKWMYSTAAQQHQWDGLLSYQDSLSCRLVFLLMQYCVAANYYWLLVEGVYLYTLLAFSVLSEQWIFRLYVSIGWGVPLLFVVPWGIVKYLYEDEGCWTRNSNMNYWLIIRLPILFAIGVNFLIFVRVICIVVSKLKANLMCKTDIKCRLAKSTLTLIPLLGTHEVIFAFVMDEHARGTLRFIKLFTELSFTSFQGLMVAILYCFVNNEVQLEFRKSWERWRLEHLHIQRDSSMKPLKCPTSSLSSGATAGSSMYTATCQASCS
- method_summary: Functional cAMP activity in the presence of 1% HSA
- Format: cell-based
- assay_context: read-out: cAMP Rel EC50, hGLP-1R
Starred links: 1 amine or outer side, 2 acyl side, 3 side chain; linkers in the order of their positions; H or OH if unused. Non-standard residues stand in square brackets, D forms with d. Groups on a side chain read outwards from the residue. No end group written: not given here. *: point of attachment. C20 diacid = O=C(O)CCCCCCCCCCCCCCCCCCC(=O)*; C18 diacid = O=C(O)CCCCCCCCCCCCCCCCC(=O)*; αMePhe(2-F) = C[C@](N)(Cc1ccccc1F)C(=O)O; γGlu = O=C(O)[C@H](CCC(=O)[*:2])N[*:1]; αMe4Pal = C[C@](N)(Cc1ccncc1)C(=O)O; αMeY = C[C@](N)(Cc1ccc(O)cc1)C(=O)O; αMeF = C[C@](N)(Cc1ccccc1)C(=O)O; 4Pal = N[C@@H](Cc1ccncc1)C(=O)O; αMeL = CC(C)C[C@](C)(N)C(=O)O; αMeS = C[C@](N)(CO)C(=O)O; Orn = NCCC[C@H](N)C(=O)O; AEEA = NCCOCCOCC(=O)O; Aib = CC(C)(N)C(=O)O
Scale note: pEC50 = -log10(concentration in M).

Item H-Y[Aib]QGT[αMePhe(2-F)]TSD[4Pal]SI[αMeL]LD[Orn]K([AEEA-γGlu-C18 diacid])AQ[αMe4Pal]EFI[dE][αMeY]LQEGGPSSGEPPPSGS-NH2 [Example 648] has what recorded pEC50? 7.06

Item H-Y[Aib]QGTFTSD[4Pal]SQ[αMeL]LDKK([AEEA-γGlu-γGlu-C18 diacid])AQ[αMe4Pal]AFIEWLIEGGPSSGAPPPSGS-NH2 [Example 871] has what recorded pEC50? 6.64

Item Y[Aib]QGTFTSD[4Pal]SQ[αMeL]LDKK([AEEA-γGlu-C18 diacid])AQ[Aib]AFIEYLLE[dA]GPSSGAPPPSG[4Pal]-NH2 [Example 822] has what recorded pEC50? 6.49

Item H-Y[Aib]QGT[αMeF]TSD[4Pal][αMeS]I[αMeL]LD[Orn]K([γGlu-γGlu-C18 diacid])AQ[αMe4Pal]EFI[dE][αMeY]LIEGGPSSGEPPPSGE-NH2 [Example 1171] has what recorded pEC50? 7.28

Item H-Y[Aib]QGTFTSDFS[Orn][αMeL]LDKK([AEEA-γGlu-γGlu-C18 diacid])AQ[Aib]AFIEYLLE[Aib]GHSSGAPPPSGS-NH2 [Example 243] has what recorded pEC50? 6.21

Item Y[Aib]QGTFTSDFSK[αMeL]LDKK([AEEA-γGlu-C20 diacid])AQ[Aib]AFIEYLLEGGPSSGEPPPTEG-NH2 [Example 36] has what recorded pEC50? 5.87

Item H-Y[Aib]QGT[αMePhe(2-F)]TSD[4Pal][αMeS]I[αMeL]LD[Orn]K([AEEA-γGlu-γGlu-C18 diacid])AQ[αMe4Pal]EFI[dE][αMeY]LIEGGPSSGEPPPSGE-NH2 [Example 1177] has what recorded pEC50? 7.36

Item Y[Aib]QGTFTSDFSK[αMeL]LDKK([AEEA-γGlu-C20 diacid])AQ[Aib]AFIEYLLAGGPSSGEPPPSGE-NH2 [Example 2] has what recorded pEC50? 6.20

Item Y[Aib]QGT[αMePhe(2-F)]TSD[4Pal][αMeS]I[αMeL]LD[Orn]K([AEEA-γGlu-C18 diacid])AQ[αMe4Pal]EFI[dE][αMeY]LIEGGPSSGAPPPESE-NH2 [Example 1146] has what recorded pEC50? 7.40

Item H-Y[Aib]QGT[αMePhe(2-F)]TSD[4Pal][αMeS]I[αMeL]LD[Orn]K([AEEA-AEEA-γGlu-C18 diacid])AQ[Aib][Orn]FI[dE][αMeY]LIEGGPSSGAPEPSEG-NH2 [Example 472] has what recorded pEC50? 8.10

Item H-Y[Aib]QGTFTSD[4Pal]S[Orn][αMeL]LD[Orn]K([γGlu-γGlu-C18 diacid])AQ[αMe4Pal]EFIE[αMeY]LIEGGPSSGAPPPSGSEE-NH2 [Example 973] has what recorded pEC50? 5.94
